biological target: Histamine H1 receptor (Cavia porcellus, UniProt P31389); test: Binding affinity for histamine H1 receptor from guinea pig cerebellum, using [3H]pyrilamine as radioligand at 0.1 uM; type: tissue-based
Sequence (P31389 whole entry): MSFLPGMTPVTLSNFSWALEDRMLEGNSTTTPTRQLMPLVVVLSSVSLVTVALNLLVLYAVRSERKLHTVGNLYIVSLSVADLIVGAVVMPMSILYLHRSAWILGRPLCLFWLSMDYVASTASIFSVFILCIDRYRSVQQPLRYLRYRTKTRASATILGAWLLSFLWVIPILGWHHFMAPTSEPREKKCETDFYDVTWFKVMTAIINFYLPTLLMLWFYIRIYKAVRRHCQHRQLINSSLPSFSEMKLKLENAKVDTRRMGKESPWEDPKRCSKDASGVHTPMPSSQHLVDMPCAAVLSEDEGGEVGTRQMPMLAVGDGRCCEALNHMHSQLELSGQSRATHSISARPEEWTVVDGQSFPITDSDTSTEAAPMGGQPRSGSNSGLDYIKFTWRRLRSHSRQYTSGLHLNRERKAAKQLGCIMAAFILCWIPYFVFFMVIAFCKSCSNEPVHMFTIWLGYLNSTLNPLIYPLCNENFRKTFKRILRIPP
quantity_measured: Ki
The reply should consist of the numeric value with the unit placed after it.

CN(C)CC/C=C1\c2ccccc2COc2ccc(C(=O)O)cc21.O=C(O)/C=C/C(=O)O	4.2 nM
CN(C)CC/C=C1\c2ccccc2COc2ccc(CCO)cc21	0.48 nM
CCN(CC)CC/C=C1/c2ccccc2COc2ccc(C(=O)O)cc21.O=C(O)/C=C/C(=O)O	10 nM
CN(C)CC/C=C1\c2ccccc2COc2ccc(CCC(=O)O)cc21	4.2 nM

Next:
So, CN(C)CC/C=C1/c2ccccc2COc2cc(C(=O)O)ccc21 ? Its Ki was 24 nM

====

target: Histamine H1 receptor (Cavia porcellus); assay: Binding affinity for histamine H1 receptor from guinea pig cerebellum, using [3H]pyrilamine as radioligand at 0.1 uM; type: tissue-based
quantity_measured: pKi
Please note pKi is a logarithmic value: minus log10 of concentration in mol/L. Answer with that number alone.

Below, 4 compounds whose answers are already recorded.
CN(C)CC/C=C1/c2ccccc2COc2ccc(CC(=O)O)cc21.Cl [OLOPATADINE HYDROCHLORIDE]	7.80
CN(C)CCSC1c2ccccc2COc2ccc(C(=O)O)cc21.Cl (stereo unspecified)	7.85
O=C(O)c1ccc2c(c1)/C(=C\CCN1CCSCC1)c1ccccc1CO2	8.12
O=C(O)/C=C/C(=O)O.O=C(O)c1ccc2c(c1)/C(=C\CCN1CCCC1)c1ccccc1CO2	8.30

Could you now consider this next compound?
For reference, reported pKi for CN(C)CC/C=C1\c2ccccc2COc2ccc(CC(=O)O)cc21 stands at 8.28

====

target: Histamine H1 receptor (Cavia porcellus, UniProt P31389); assay: The compound was tested in vitro for binding affinity against histamine H1 receptor from guinea pig cerebellum, using [3H]pyrilamine as radioligand at 0.1 uM; assay type: tissue-based
Below, each entry is listed alongside its reported pKi.
# pKi: negative log10 of molar concentration; output just the value

CN(C)CC/C=C1/c2ccccc2COc2ccc(CCO)cc21	9.20
CN(C)CC/C=C1/c2ccccc2COc2ccc(CCC(=O)O)cc21	7.82
CN(C)CCC/C=C1/c2ccccc2COc2ccc(C(=O)O)cc21	8.24

Just so you know, measured pKi for CN(C)C/C=C1\c2ccccc2COc2ccc(CC(=O)O)cc21 came out at 7.96

====

target: Histamine H1 receptor (Cavia porcellus, UniProt P31389); assay: Binding affinity for histamine H1 receptor from guinea pig cerebellum, using [3H]pyrilamine as radioligand at 0.1 uM; format: tissue-based
pKi: −log10 of the molar value.
Respond with 1 for pKi values of 8 and above, -1 for values below.

Worked examples, 3 compounds total:
Cc1ccc2c(c1)/C(=C/CCN(C)C)c1ccccc1CO2.O=C(O)/C=C/C(=O)O	1
CN(C)CCC/C=C1/c2ccccc2COc2ccc(CC(=O)O)cc21	1
CN(C)CC/C=C1/c2ccccc2COc2ccc(/C=C/C(=O)O)cc21.O=C(O)/C=C/C(=O)O	-1

Would you say CN(C)CC/C=C1/c2ccccc2COc2ccc(C(=O)O)cc21 shows pKi at minimum 8?
-1

Origin of values: ChEMBL document CHEMBL1126065
